// values below are reported IC50
target: human TRPA1 (Homo sapiens); construct: expressed in transfected cells; assay: Cell-based functional intracellular calcium ([Ca2+]i) assay, Fluo-4/Fluo-8, FlexStation, challenge with reference TRPA1 agonist (FFA, AITC or 4-HNE)
Sequence (O75762 whole entry): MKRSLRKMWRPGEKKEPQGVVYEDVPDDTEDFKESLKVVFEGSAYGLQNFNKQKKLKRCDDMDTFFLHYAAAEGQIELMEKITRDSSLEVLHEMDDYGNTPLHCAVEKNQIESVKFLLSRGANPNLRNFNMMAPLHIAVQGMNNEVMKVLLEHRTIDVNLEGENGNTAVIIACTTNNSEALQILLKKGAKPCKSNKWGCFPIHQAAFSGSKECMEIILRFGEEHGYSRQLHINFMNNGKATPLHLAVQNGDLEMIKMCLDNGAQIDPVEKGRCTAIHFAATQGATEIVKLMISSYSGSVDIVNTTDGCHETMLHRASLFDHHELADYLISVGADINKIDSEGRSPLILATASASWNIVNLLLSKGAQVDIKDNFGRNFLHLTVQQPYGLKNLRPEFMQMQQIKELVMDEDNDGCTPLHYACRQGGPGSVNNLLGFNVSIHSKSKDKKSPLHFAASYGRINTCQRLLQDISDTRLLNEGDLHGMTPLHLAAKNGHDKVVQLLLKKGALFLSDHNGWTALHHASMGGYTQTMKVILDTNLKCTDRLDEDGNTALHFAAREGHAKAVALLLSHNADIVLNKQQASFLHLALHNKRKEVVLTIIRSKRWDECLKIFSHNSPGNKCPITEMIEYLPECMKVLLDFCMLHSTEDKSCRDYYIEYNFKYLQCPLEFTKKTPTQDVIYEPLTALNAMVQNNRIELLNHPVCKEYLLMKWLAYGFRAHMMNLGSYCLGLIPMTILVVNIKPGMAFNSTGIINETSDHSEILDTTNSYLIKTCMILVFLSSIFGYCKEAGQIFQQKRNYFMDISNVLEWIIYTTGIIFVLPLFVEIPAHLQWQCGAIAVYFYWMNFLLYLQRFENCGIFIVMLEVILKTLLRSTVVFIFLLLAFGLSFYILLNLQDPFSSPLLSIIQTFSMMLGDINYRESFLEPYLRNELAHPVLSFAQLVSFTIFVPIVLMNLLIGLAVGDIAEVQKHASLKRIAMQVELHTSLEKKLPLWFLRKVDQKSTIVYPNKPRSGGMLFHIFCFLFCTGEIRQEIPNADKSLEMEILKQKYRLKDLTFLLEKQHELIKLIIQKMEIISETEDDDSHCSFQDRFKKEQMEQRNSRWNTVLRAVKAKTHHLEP
Property Name: IC50

Compound	Property Name	Result
O=C(c1cc(-c2ccncc2)n(-c2cnccn2)n1)N1CCC2(CC1)OCCO2	IC50	> 25 µM
CC1COC2(CCN(C(=O)c3cc(-c4ccncc4)n(-c4cnccn4)n3)CC2)O1 (centres unmarked)	IC50	> 25 µM
O=C(c1cc(-c2cccnc2)n(-c2ccc(C(F)(F)F)c(F)c2)n1)N1C2CCC1CC1(C2)C(=O)NCN1c1ccc(F)cc1 (centres unmarked)	IC50	0.001 to 5 µM
O=C(c1cc(-c2ccncc2)n(-c2cc(C(F)(F)F)cc(C(F)(F)F)c2)n1)N1CCC2(CC1)OCCO2	IC50	> 25 µM
O=C(c1cc(-c2ccncc2)n(-c2ccc(F)cc2F)n1)N1CCC2(CC1)OCCO2	IC50	> 25 µM
O=C(c1cc(-c2ccncc2)n(-c2ccc(C(F)(F)F)nc2)n1)N1CCC2(CC1)OCCO2	IC50	> 25 µM
O=C(c1cc(-c2cccnc2)n(-c2ccc(F)c(C(F)(F)F)c2)n1)N1C2CCC1CC(n1c(=O)[nH]c3ccc(F)c(F)c31)C2 (centres unmarked)	IC50	0.001 to 5 µM
O=C(c1cc(-c2ccncc2)n(-c2ccc(C(F)(F)F)nc2)n1)N1CCC(N2C(=O)Cc3ccccc32)CC1	IC50	> 25 µM
O=C(c1cc(-c2ccncc2)n(-c2ccc3c(c2)OCO3)n1)N1CCC2(CC1)OCCO2	IC50	> 25 µM
CC1COC2(CCN(C(=O)c3cc(-c4ccncc4)n(-c4ccc(F)c(F)c4)n3)CC2)O1 (centres unmarked)	IC50	> 25 µM
CCCC1COC2(CCN(C(=O)c3cc(-c4ccncc4)n(-c4ccc(C(F)(F)F)c(F)c4)n3)CC2)O1 (centres unmarked)	IC50	> 25 µM
O=C(c1cc(-c2ccncc2)n(-c2ccc(C(F)(F)F)cc2)n1)N1CCC2(CC1)OCCO2	IC50	5 to 25 µM
CCCC1COC2(CCN(C(=O)c3cc(-c4ccncc4)n(-c4cnccn4)n3)CC2)O1 (centres unmarked)	IC50	> 25 µM
CCCC1COC2(CCN(C(=O)c3cc(-c4ccncc4)n(-c4ccc(C(F)(F)F)cc4)n3)CC2)O1 (centres unmarked)	IC50	> 25 µM

###

biological target: human TRPA1 (Homo sapiens); construct: expressed in transfected cells; assay: Cell-based functional intracellular calcium ([Ca2+]i) assay, Fluo-4/Fluo-8, FlexStation, challenge with reference TRPA1 agonist (FFA, AITC or 4-HNE); details: HEK293 cells expressing human TRPA1; IC50 class after addition of reference TRPA1 agonist (FFA, AITC or 4-HNE); read-out: human TRPA1-HEK Activity
pIC50: −log10 of the molar value.

Molecule	Tested Target	pIC50
N#Cc1cccc2[nH]c(=O)n(C3CCN(C(=O)c4cc(-c5cccnc5)n(-c5cc(F)c(F)c(F)c5)n4)CC3)c12	human TRPA1 (Homo sapiens)	5.30 to 9.00
O=C(c1cc(-c2cccnc2)n(-c2cc(F)c(F)c(F)c2)n1)N1CCC2(CC1)C(=O)NCN2c1ccc(F)cc1	human TRPA1 (Homo sapiens)	5.30 to 9.00
CC1CC(n2c(=O)[nH]c3ccc(F)c(F)c32)CC(C)N1C(=O)c1cc(-c2cccnc2)n(-c2ccc(C(F)(F)F)c(F)c2)n1 (stereo not drawn)	human TRPA1 (Homo sapiens)	4.60 to 5.30
